# System: Sodium Channel, Site 2
# Assay type: binding, Wistar Rat
# experimental-context: 10 μM
Would you mind labelling by [3H]BTX-B binding % inhibition (@ 10 μM)? At or over 20% is met, under is not met.

>>> print(df.to_string())
                                   compound      cat
0  Nc1nnc(-c2cc(F)c(F)c(F)c2F)c(N)n1 [CEN-208]      met
1  Cc1ccc(S(=O)(=O)O)cc1.Nc1nnc(-c2cc(C(F)(F)F)ccc2C(F)(F)F)c(N)n1 [CEN-198]      met
2  N=c1nc(N)c(-c2cc(C(F)(F)F)cc(Cl)c2F)nn1CC(F)(F)C(F)(F)F.O=S(=O)(O)C(F)(F)F [CEN-211]      met
3  Nc1nnc(-c2ccc(F)c(F)c2F)c(N)n1 [CEN-206]      met
4  Cc1ccc(S(=O)(=O)O)cc1.Nc1nnc(-c2c(Cl)ccc(Cl)c2Cl)c(N)n1 [CEN-214]  not met
5  CCn1nc(-c2cc(F)c(F)cc2Cl)c(N)nc1=N.CS(=O)(=O)O [CEN-205]      met
6  CC(C)(Oc1ccc(Cl)cc1)c1nnc(N)nc1N [CEN-215]      met
7  CC(C)C(c1ccccc1)c1nnc(N)nc1N (stereo not drawn) [CEN-201]  not met
8  Cc1ccc(S(=O)(=O)O)cc1.Nc1nnc(-c2c(C(F)(F)F)ccc(Cl)c2Cl)c(N)n1 [CEN-209]      met
